system: Saccharomyces cerevisiae BY4741 SeMeCo community; experiment: z-score of subpopulation abundance vs DMSO median, subpopulation auxotrophic for HLUM; higher = larger share of this subpopulation than in DMSO controls; settings: 10 µM; 24 h; SM minimal medium; subpopulation (auxotrophy): HLUM
Where a name gives a salt, the structure may show the parent alone.
Classify by measured z-score of subpopulation abundance: Satisfied if it is equal to or exceeds -0.2, Not satisfied if it is smaller.

# Molecule, Assigned category
rows = [
    ("CN1[C@@H]2CC[C@H]1C[C@@H](OC(=O)[C@H](CO)c1ccccc1)C2", "Satisfied"),
    ("CN(C)C(=O)Oc1ccc[n+](C)c1 [Pyridostigmine Bromide]", "Not satisfied"),
    ("N#Cc1nn(-c2c(Cl)cc(C(F)(F)F)cc2Cl)c(N)c1[S+]([O-])C(F)(F)F (configuration not stated)", "Not satisfied"),
    ("O=c1[nH]c2ccccc2n1CCCN1CCC(n2c(=O)[nH]c3cc(Cl)ccc32)CC1", "Satisfied"),
    ("CCC1=C[C@H]2CN3CCc4c([nH]c5ccccc45)[C@](C(=O)OC)(C2)[C@H]13", "Not satisfied"),
    ("C[C@@H]1O[C@@H](O[C@H]2C[C@@H](O)[C@]3(CO)[C@H]4[C@H](O)C[C@]5(C)[C@@H](C6=CC(=O)OC6)CC[C@]5(O)[C@@H]4CC[C@]3(O)C2)[C@H](O)[C@H](O)[C@H]1O", "Not satisfied"),
    ("CN1[C@@H]2CC[C@H]1C[C@@H](OC(=O)C(CO)c1ccccc1)C2 (some centres not stated) [Atropine sulfate monohydrate]", "Not satisfied"),
]

----------
tested on: Saccharomyces cerevisiae BY4741 SeMeCo community; assay: z-score of subpopulation abundance vs DMSO median, subpopulation auxotrophic for M; higher = larger share of this subpopulation than in DMSO controls; settings: 10 µM; 24 h; SM minimal medium; subpopulation (auxotrophy): M
Where a name gives a salt, the structure may show the parent alone.
Classify by measured z-score of subpopulation abundance: Fulfilled if it is equal to or exceeds -0.3, Not fulfilled if it is smaller.

# Compound, Assayed target, Assigned category
records = [
    ("C[N+](C)(C)CCCCCCCCCC[N+](C)(C)C [Decamethonium Bromide]", "Saccharomyces cerevisiae BY4741 SeMeCo community", "Not fulfilled"),
    ("CN1C(=O)COc2c(C(=O)NC3CN4CCC3CC4)cc(Cl)cc21 (stereo not given) [Azasetron HCl]", "Saccharomyces cerevisiae BY4741 SeMeCo community", "Fulfilled"),
    ("Cc1cc(C(C#N)c2ccc(Cl)cc2)c(Cl)cc1NC(=O)c1cc(I)cc(I)c1O (stereo not given) [Closantel]", "Saccharomyces cerevisiae BY4741 SeMeCo community", "Fulfilled"),
    ("CCCCCCCCCCCCCCCC[n+]1ccccc1 [Cetylpyridinium Chloride]", "Saccharomyces cerevisiae BY4741 SeMeCo community", "Not fulfilled"),
    ("C=CN1CCCC1=O.II [Povidone iodine]", "Saccharomyces cerevisiae BY4741 SeMeCo community", "Not fulfilled"),
    ("COc1ccc(C(CN(C)C)C2(O)CCCCC2)cc1 (stereo not given) [Venlafaxine HCl]", "Saccharomyces cerevisiae BY4741 SeMeCo community", "Fulfilled"),
    ("CN(C)[C@@H]1C(=O)C(C(N)=O)=C(O)[C@@]2(O)C(=O)C3=C(O)c4c(O)cccc4[C@@](C)(O)[C@H]3C[C@@H]12 [Tetracycline HCl]", "Saccharomyces cerevisiae BY4741 SeMeCo community", "Fulfilled"),
    ("CN[C@@H]1[C@@H](O)[C@@H](O[C@@H]2[C@@H](O)[C@H](O[C@H]3O[C@H]([C@@H](C)O)[C@@H](O)[C@H](O)[C@H]3N)[C@@H](N)C[C@H]2N)OC[C@]1(C)O [Geneticin (G418 Sulfate)]", "Saccharomyces cerevisiae BY4741 SeMeCo community", "Fulfilled"),
    ("CC(C)(O)C(Cl)(Cl)Cl [Chlorobutanol]", "Saccharomyces cerevisiae BY4741 SeMeCo community", "Fulfilled"),
    ("CC[N+](C)(CC)CCOC(=O)C(O)(c1ccccc1)c1ccccc1 [Methylbenactyzine Bromide]", "Saccharomyces cerevisiae BY4741 SeMeCo community", "Fulfilled"),
    ("CN[C@@H]1[C@@H](O)[C@@H](O[C@@H]2[C@@H](O)[C@H](O[C@H]3O[C@H](CN)CC[C@H]3N)[C@@H](N)C[C@H]2N)OC[C@]1(C)O.CN[C@@H]1[C@@H](O)[C@@H](O[C@@H]2[C@@H](O)[C@H](O[C@H]3O[C@H]([C@@H](C)N)CC[C@H]3N)[C@@H](N)C[C@H]2N)OC[C@]1(C)O.CN[C@@H]1[C@@H](O)[C@@H](O[C@@H]2[C@@H](O)[C@H](O[C@H]3O[C@H]([C@@H](C)NC)CC[C@H]3N)[C@@H](N)C[C@H]2N)OC[C@]1(C)O [Gentamicin Sulfate]", "Saccharomyces cerevisiae BY4741 SeMeCo community", "Not fulfilled"),
    ("Oc1cccc2cccnc12 [8-Hydroxyquinoline]", "Saccharomyces cerevisiae BY4741 SeMeCo community", "Fulfilled"),
    ("CC[C@H]1CN2CC[C@]3(C(=O)Nc4ccccc43)[C@@H]2C[C@@H]1/C(=C\\OC)C(=O)OC [Rhynchophylline]", "Saccharomyces cerevisiae BY4741 SeMeCo community", "Not fulfilled"),
    ("Oc1cc(Cl)ccc1Oc1ccc(Cl)cc1Cl [Triclosan]", "Saccharomyces cerevisiae BY4741 SeMeCo community", "Not fulfilled"),
    ("COc1ccc2[nH]cc(CCN)c2c1 [5-Methoxytryptamine]", "Saccharomyces cerevisiae BY4741 SeMeCo community", "Fulfilled"),
]
